Field: TGI. Provide a value for each of the molecules that follow.
Test system: MCF7 breast
MEASUREMENT_PROTOCOL: NCI tumour cell line growth inhibition, 48 h

Query: Param readout= TGI; system= MCF7 breast; entry= N#CC(NNC(=O)c1ccccc1O)c1c(O)ccc2ccccc12 (stereo not drawn) ; returns value.
Reply: 53.6 µM

Query: Param readout= TGI; system= MCF7 breast; entry= C=CCN1C(=O)CC(=O)N(NC2=NNC3(C(=O)N2)c2ccccc2-c2ccccc23)C1=S ; returns value.
Reply: > 100 µM

Query: Param readout= TGI; system= MCF7 breast; entry= CCOC(=O)c1cc2c3c(cc(OC)c2[nH]1)N(C(=O)OCC)CC3 ; returns value.
Reply: > 100 µM

---

System: HT29 colon
MEASUREMENT_PROTOCOL: NCI tumour cell line growth inhibition, 48 h
EXPERIMENTAL_READOUT: TGI

Query: Requested field: TGI. Item: COCC1N=C(c2cc(OC)c(OC)c(OC)c2-c2cc3c(cc2[C@H](C)O)OCO3)O[C@H]1c1ccccc1 (stereo partly drawn)
Reply: > 100 µM

Query: Requested field: TGI. Item: Nc1nc(=S)[nH]c(C(=O)Nc2nccs2)c1-c1ccccc1
Reply: > 100 µM

Query: Requested field: TGI. Item: c1cncc(C2ONC3=NCCN32)c1 (stereo not drawn)
Reply: > 100 µM

---

Tested on: SNB-75 CNS
MEASUREMENT_PROTOCOL: NCI tumour cell line growth inhibition, 48 h
Where a SMILES comes first, the peptide text is derived from it. The star is where a group is joined. Cbz = O=C(OCc1ccccc1)*; Boc = CC(C)(C)OC(=O)*; OSu = O=C1CCC(=O)N1O*; Bn = c1ccc(C*)cc1
EXPERIMENTAL_READOUT: TGI

Query: Requested field: TGI. Item: Cc1cc2occ(S(=O)(=O)NC(=O)Nc3ccc(Cl)cc3)c(=O)c2c(=O)o1
Reply: > 100 µM

Query: Requested field: TGI. Item: COc1cc([C@@H]2Oc3cc4oc(-c5ccccc5)cc(=O)c4c(O)c3O[C@H]2OC)ccc1O
Reply: 25.1 µM

Query: Requested field: TGI. Item: CSc1nc[nH]c1C(N)=S
Reply: > 100 µM

Query: Requested field: TGI. Item: Cc1ccc(NC(=O)C(=O)Cc2cccc[n+]2[O-])cc1C
Reply: > 100 µM

Query: Requested field: TGI. Item: C/C(CC(=O)Nc1cccc([N+](=O)[O-])c1)=N\NC(=O)C[n+]1ccccc1
Reply: > 100 µM

Query: Requested field: TGI. Item: CC(C)[C@@H]1NC(=O)[C@@H]2N=C(O[C@H]2C)[C@H](C(C)C)NC(=O)C2N=C1O[C@H]2C
Reply: > 100 µM

Query: Requested field: TGI. Item: O=C1C=C/C(=C/[C@H]2SSC=C[C@]23C=CC(=O)C3)C1
Reply: > 100 µM

Query: Requested field: TGI. Item: Cc1ccc(S(=O)(=O)N2CCC(C(=O)O)(c3ccccc3)CC2)cc1
Reply: > 100 µM

Query: Requested field: TGI. Item: O=C(C(=O)c1cc(Br)ccc1O)c1cc(Br)ccc1O
Reply: 29.4 µM

Query: Requested field: TGI. Item: O=C(O)C1(C(O)c2ccccc2)SCCCS1 (stereo unspecified)
Reply: > 10 µM

Query: Requested field: TGI. Item: NC(N)=NCCCC(NC(=O)c1c2ccccc2nc2ccccc12)C(=O)O (stereo unspecified)
Reply: > 100 µM

Query: Requested field: TGI. Item: CC(C)(C)OC(=O)NC(Cc1ccc(OCc2ccccc2)cc1)C(=O)NC(CCCCNC(=O)OCc1ccccc1)C(=O)NC(CCCCNC(=O)OCc1ccccc1)C(=O)ON1C(=O)CCC1=O (stereo unspecified) (Boc-Tyr(Bn)-Lys(Cbz)-Lys(Cbz)-OSu; configuration not given here)
Reply: > 100 µM

Query: Requested field: TGI. Item: Cc1ccccc1Nc1nc2ccccc2nc1NS(=O)(=O)c1ccccc1
Reply: > 100 µM

Query: Requested field: TGI. Item: COc1cc(/C=C2\C(=O)N(C)c3ccccc32)cc(OC)c1OC
Reply: 70 µM

Query: Requested field: TGI. Item: Cc1ccnc(Nc2ccc([N+](=O)[O-])c(NCCN3CCOCC3)n2)c1
Reply: 20.1 µM

Query: Requested field: TGI. Item: O=C(/C=C(\[O-])c1ccccc1)CCCCCCC(=O)/C=C(\[O-])c1ccccc1.O=C(/C=C(\[O-])c1ccccc1)CCCCCCC(=O)/C=C(\[O-])c1ccccc1.O=C(/C=C(\[O-])c1ccccc1)CCCCCCC(=O)/C=C(\[O-])c1ccccc1.[Nd+3].[Nd+3]
Reply: > 50 µM

Query: Requested field: TGI. Item: CC(NNC(=O)c1ccncc1)c1ccc(Cl)cc1Cl (stereo unspecified)
Reply: > 100 µM

Query: Requested field: TGI. Item: Clc1cc2ncn(C3CCCCO3)c2cc1Cl (stereo unspecified)
Reply: 53.9 µM

Query: Requested field: TGI. Item: COc1ccc(C23OCC(Cc4cc(OC)c(OC)cc42)C3CO)cc1OC (stereo unspecified)
Reply: > 100 µM

Query: Requested field: TGI. Item: Nc1nc(=S)[nH]c(C(=O)Nc2nccs2)c1-c1ccccc1
Reply: > 100 µM

Query: Requested field: TGI. Item: N#CC(NC(=O)CCl)=C(Cl)Cl
Reply: 4.27 µM

---

Test system: HCT-15 colon
MEASUREMENT_PROTOCOL: NCI tumour cell line growth inhibition, 48 h
EXPERIMENTAL_READOUT: TGI

Query: Requested field: TGI. Item: O=C(O)Cn1ccc(=O)c2cc([N+](=O)[O-])ccc21
Reply: > 100 µM

Query: Requested field: TGI. Item: O=C(Nc1ccc(C(F)(F)F)cc1[N+](=O)[O-])c1cccnc1
Reply: > 100 µM

Query: Requested field: TGI. Item: COc1cc(N(CCC#N)CCC#N)ccc1/C(N=Nc1ccc(C(=O)O)cc1)=N/NC(=O)c1cc(Br)ccc1O
Reply: 95 µg/mL

Query: Requested field: TGI. Item: Cc1nc(Cc2n[nH]c(C)n2)n[nH]1
Reply: > 100 µM

Query: Requested field: TGI. Item: CN(C)c1ccc(C2CC(C)(O)Oc3cc4c(cc32)OCO4)cc1 (configuration not stated)
Reply: > 100 µM

Query: Requested field: TGI. Item: c1ccc2c3c([nH]c2c1)C1C2CCCCN2C(c2ccncc2)N1CC3 (configuration not stated)
Reply: > 100 µM

Query: Requested field: TGI. Item: O=c1cccccc1[O-].O=c1cccccc1[O-].O=c1cccccc1[O-].[Sm+3]
Reply: > 100 µM

Query: Requested field: TGI. Item: N#CC(NC(=O)CCl)=C(Cl)Cl
Reply: 2.34 µM

Query: Requested field: TGI. Item: CCN(CC)CCOc1ccc2c(C)c(C(=O)OC)oc2c1C(=O)/C=C/c1ccc(OC)cc1
Reply: 3.57 µM

Query: Requested field: TGI. Item: CCOC(=O)c1c(-c2ccccc2)c(C)cn1C
Reply: > 10 µM

Query: Requested field: TGI. Item: O=CC1=CCC2c3[nH]c4ccccc4c3CCN2C1 (configuration not stated)
Reply: 156 µM

Query: Requested field: TGI. Item: COc1ccc(-c2cc(-c3ccco3)c(C#N)c(=O)[nH]2)cc1
Reply: > 100 µM

Query: Requested field: TGI. Item: CC(=O)N[C@@H](Cc1ccc(O)cn1)C(=O)NC1CCCCC1
Reply: > 100 µM

Query: Requested field: TGI. Item: COc1ccc(/C=N/NC(=S)Nc2cc(C)ccc2OC)cc1
Reply: > 100 µM

Query: Requested field: TGI. Item: CC1=C(CNO)C2=C(C)C3(CC3)[C@@](C)(O)C(=O)C2=C1
Reply: 4.99 µM

Query: Requested field: TGI. Item: C[n+]1c2ccccc2c(C(=O)Nc2ccc(S(=O)(=O)Nc3ncccn3)cc2)c2ccccc21
Reply: > 100 µM

Query: Requested field: TGI. Item: O=C(c1ccccc1)C(Br)C(Br)c1ccccc1 (configuration not stated)
Reply: 9.76 µM

Query: Requested field: TGI. Item: NC(N)=N/N=C(/c1ccccc1)c1ccccc1F
Reply: 13.8 µM

Query: Requested field: TGI. Item: COC(=O)C(NC(=O)c1ccccc1)C(c1c(O)cc(O)cc1O)P(=O)(OC)OC (configuration not stated)
Reply: > 100 µM

Query: Requested field: TGI. Item: COc1ccc(CC[N+]2(C)COc3cc4oc(=O)cc(C)c4cc3C2)cc1OC (configuration not stated)
Reply: > 100 µM

Query: Requested field: TGI. Item: CCOc1ccccc1NC(=O)C1=C(C)NC(C)=C(C(=O)Nc2ccccc2OCC)C1c1ccc([N+](=O)[O-])cc1
Reply: > 100 µM

Query: Requested field: TGI. Item: COC(=O)C1CCC(=O)N1/C(C)=N/NC(=O)Nc1ccc(Cl)c(Cl)c1 (configuration not stated)
Reply: 68.7 µM
